Listed next: entries and their corresponding pIC50.
test-target: FLK-1 receptor (Mus musculus, UniProt P35918)
Construct: expressed in transfected cells; host or cells: NIH3T3 C7 #3
Sequence (P35918 20-1345): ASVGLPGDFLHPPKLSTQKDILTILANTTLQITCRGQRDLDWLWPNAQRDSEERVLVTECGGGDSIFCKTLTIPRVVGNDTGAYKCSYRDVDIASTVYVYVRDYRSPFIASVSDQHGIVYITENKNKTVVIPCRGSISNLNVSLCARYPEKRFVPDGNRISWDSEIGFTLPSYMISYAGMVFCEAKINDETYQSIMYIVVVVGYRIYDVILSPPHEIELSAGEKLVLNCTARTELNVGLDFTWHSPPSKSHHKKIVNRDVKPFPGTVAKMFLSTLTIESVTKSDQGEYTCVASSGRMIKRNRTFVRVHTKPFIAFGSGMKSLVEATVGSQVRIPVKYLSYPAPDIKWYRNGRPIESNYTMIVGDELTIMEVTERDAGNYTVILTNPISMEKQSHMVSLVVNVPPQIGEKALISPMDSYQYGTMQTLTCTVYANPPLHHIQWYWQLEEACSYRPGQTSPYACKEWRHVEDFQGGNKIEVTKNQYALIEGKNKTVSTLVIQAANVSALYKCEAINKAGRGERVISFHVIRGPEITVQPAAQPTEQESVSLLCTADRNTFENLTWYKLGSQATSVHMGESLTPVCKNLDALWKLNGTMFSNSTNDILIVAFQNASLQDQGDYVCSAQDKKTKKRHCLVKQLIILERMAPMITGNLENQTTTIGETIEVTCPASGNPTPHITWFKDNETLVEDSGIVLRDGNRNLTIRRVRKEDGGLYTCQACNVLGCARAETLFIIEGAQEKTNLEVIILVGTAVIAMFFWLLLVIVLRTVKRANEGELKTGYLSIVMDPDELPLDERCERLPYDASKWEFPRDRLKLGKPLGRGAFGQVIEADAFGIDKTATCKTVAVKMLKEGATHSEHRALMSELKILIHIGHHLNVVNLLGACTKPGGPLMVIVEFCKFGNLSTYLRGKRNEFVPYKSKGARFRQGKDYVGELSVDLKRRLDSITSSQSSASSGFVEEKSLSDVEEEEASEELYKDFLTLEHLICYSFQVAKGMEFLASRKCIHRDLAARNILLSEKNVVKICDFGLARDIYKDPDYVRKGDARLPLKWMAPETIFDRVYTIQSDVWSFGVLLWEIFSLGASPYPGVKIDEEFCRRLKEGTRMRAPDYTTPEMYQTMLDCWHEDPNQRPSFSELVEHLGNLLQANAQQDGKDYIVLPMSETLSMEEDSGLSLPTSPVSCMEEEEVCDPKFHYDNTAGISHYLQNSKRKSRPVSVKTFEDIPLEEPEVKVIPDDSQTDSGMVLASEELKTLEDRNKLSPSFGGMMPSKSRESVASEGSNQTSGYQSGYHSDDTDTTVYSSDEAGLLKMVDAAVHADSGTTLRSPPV
test-description: FLK-1 ELISA in FLK-1/NIH3T3 cells
Format: cell-based
measurement-context: ELISA, FLK-1/NIH3T3 cells, VEGF stimulated
Friendly reminder that pIC50 comes from taking -log10 of the concentration in mol/L.

The following molecules have reported results that may help.
molecule	quantity	meas-value
O=C1Nc2ccccc2C1=Cc1n[nH]cc1Cl	pIC50	5.13
O=C1Nc2ccc(Cl)cc2C1=Cc1ccc(N2CCOCC2)cc1	pIC50	5.39
O=C1Nc2ccccc2C1=Cc1ccco1 [SU4798, 3-[(furan-2-yl)methylene]-2-indolinone]	pIC50	4.54

Could you now consider this next molecule?
Specify reported pIC50 for the molecule shown: CC(=O)Nc1ccc(C=C2C(=O)Nc3ccccc32)cc1 [SU4799, 3-(4-acetamidobenzylidenyl)-2-indolinone] 5.05

* * *

test-target: FLK-1 receptor (Mus musculus, UniProt P35918)
Construct: expressed in transfected cells; host or cells: NIH3T3 C7 #3
test-description: FLK-1 ELISA in FLK-1/NIH3T3 cells
Assay type: cell-based
measurement-context: ELISA, FLK-1/NIH3T3 cells, VEGF stimulated
quantity: log10 IC50 (log10 of the value in µM)
log10 IC50, µM

The following compounds have reported results that may help.
compound	log10 IC50
Cc1cc(C=C2C(=O)Nc3ccccc32)oc1C	0.66
Cc1cc[nH]c1C=C1C(=O)Nc2ccccc21	-0.62
O=C1Nc2ccccc2C1=Cc1sccc1Br	1.19
Cc1c(C=O)[nH]c(C=C2C(=O)Nc3ccccc32)c1C	1.38

Specify reported log10 IC50 for the compound shown: CCOc1ccccc1C=C1C(=O)Nc2ccccc21 [SU5204, 3-(2-Ethoxybenzylidenyl]-2-indolinone] 0.60

* * *

Listed next: entries and their corresponding IC50.
test-target: FLK-1 receptor (Mus musculus, UniProt P35918)
Construct: expressed in transfected cells; host or cells: NIH3T3 C7 #3
test-description: FLK-1 ELISA in FLK-1/NIH3T3 cells
Assay type: cell-based
measurement-context: ELISA, FLK-1/NIH3T3 cells, VEGF stimulated
Express your answer in µM, writing the number without its unit.

Cc1csc(C=C2C(=O)Nc3ccccc32)c1 2.9
CN(C)c1ccc(C=C2C(=O)Nc3ccccc32)cc1 0.8
COc1cccc(C=C2C(=O)Nc3ccccc32)c1OC 11.8
CCCCN(CCCC)c1ccc(C=C2C(=O)Nc3ccccc32)cc1 20.9
O=C1Nc2ccccc2C1=Cc1ccc(N2CCCC2)cc1 1.6

Could you now consider this next compound?
Specify reported IC50 for the compound shown: "CN(C)c1ccc(C=C2C(=O)Nc3ccc(Cl)cc32)cc1" 11.2

* * *

test-target: FLK-1 receptor (Mus musculus, UniProt P35918)
Construct: expressed in transfected cells; host or cells: NIH3T3 C7 #3
test-description: FLK-1 ELISA in FLK-1/NIH3T3 cells
Type: cell-based
measurement-context: ELISA, FLK-1/NIH3T3 cells, VEGF stimulated
quantity: IC50 (µM)
Express your answer in µM, writing the number without its unit.

The following molecules have reported results that may help.
Cc1ccsc1C=C1C(=O)Nc2ccccc21 4.5
CN(C)c1ccc(C=C2C(=O)N(C)c3ccccc32)cc1 22.6
CCc1c(C=C2C(=O)Nc3ccccc32)[nH]c(C(=O)O)c1C 36.2
CCc1ccc(C=C2C(=O)Nc3ccccc32)s1 3.4

Could you now consider this next molecule?
Specify reported IC50 for the molecule shown: "O=C1Nc2ccccc2C1=Cc1ccc(O)cc1Cl" 2.2

Values from patent US6906093B2
